Just for reference, paper PMC7583830 is where these values come from.

Test: Biodistribution in BALB/c mice
Type: in vivo
Settings: female, BALB/c, mouse, lung, iv, 30 MBq, total radioactivity; 30 min p.i.; read-out: uptake in lung
Where a SMILES comes first, the peptide text is derived from it. [ ]: non-standard residue; d: D form. The star is where a group is joined. DOTA = O=C(O)CN1CCN(CC(=O)O)CCN(CC(=O)*)CCN(CC(=O)O)CC1; 1Nal = N[C@@H](Cc1cccc2ccccc12)C(=O)O; NMeNle = CCCC[C@H](NC)C(=O)O
REPORTED METRIC: tissue uptake at 0.5 h (%ID/g)
Give bare numbers, in %ID/g.

Input: Which tissue uptake at 0.5 h is listed for CCCC[C@@H](C(=O)N[C@@H](CC(=O)O)C(=O)N[C@@H](Cc1cccc2ccccc12)C(N)=O)N(C)C(=O)[C@H](Cc1c[nH]c2ccccc12)NC(=O)CNC(=O)[C@H](Cc1ccc(O)cc1)NC(=O)[C@@H]1CCCN1C(=O)[C@@H](CCC(=O)O)NC(=O)CN1CCN(CC(=O)O)CCN(CC(=O)O)CCN(CC(=O)O)CC1 [[^177Lu]Lu-1, metal not drawn] ({DOTA}-[dE]PYGW[NMeNle]D[1Nal]-NH2) ?
Output: 5.03

----------
Field: percentage of intact radiopeptide / radiometabolite. Provide a value for each of the compounds that follow.
Assay: Metabolic stability in vivo and radiometabolites (radio-HPLC of blood, urine, liver, kidney)
Design: species or system BALB/c mice
Details: urine, 30 min p.i.
Where a SMILES comes first, the peptide text is derived from it. [ ]: non-standard residue; d: D form. The star is where a group is joined. DOTA = O=C(O)CN1CCN(CC(=O)O)CCN(CC(=O)*)CCN(CC(=O)O)CC1; 1Nal = N[C@@H](Cc1cccc2ccccc12)C(=O)O; NMeNle = CCCC[C@H](NC)C(=O)O
Give bare numbers, in %.

INSERT INTO measurements (compound, assay_result) VALUES
  ('CCCC[C@@H](C(=O)N[C@@H](CC(=O)O)C(=O)N[C@@H](Cc1cccc2ccccc12)C(=O)O)N(C)C(=O)[C@H](Cc1c[nH]c2ccccc12)NC(=O)CNC(=O)[C@H](Cc1ccc(O)cc1)NC(=O)[C@@H]1CCCN1C(=O)[C@@H](CCC(=O)O)NC(=O)CN1CCN(CC(=O)O)CCN(CC(=O)O)CCN(CC(=O)O)CC1 [[^177Lu]Lu-M1, metal not drawn] ({DOTA}-[dE]PYGW[NMeNle]D[1Nal]-OH)', 1.4),
  ('CCCC[C@@H](C(=O)N[C@@H](CC(=O)O)C(=O)N[C@@H](Cc1cccc2ccccc12)C(N)=O)N(C)C(=O)[C@H](Cc1c[nH]c2ccccc12)NC(=O)CNC(=O)[C@H](Cc1ccc(O)cc1)NC(=O)[C@@H]1CCCN1C(=O)[C@@H](CCC(=O)O)NC(=O)CN1CCN(CC(=O)O)CCN(CC(=O)O)CCN(CC(=O)O)CC1 [[^177Lu]Lu-1, metal not drawn] ({DOTA}-[dE]PYGW[NMeNle]D[1Nal]-NH2)', 19.4),
  ('CCCC[C@@H](C(=O)O)N(C)C(=O)[C@H](Cc1c[nH]c2ccccc12)NC(=O)CNC(=O)[C@H](Cc1ccc(O)cc1)NC(=O)[C@@H]1CCCN1C(=O)[C@@H](CCC(=O)O)NC(=O)CN1CCN(CC(=O)O)CCN(CC(=O)O)CCN(CC(=O)O)CC1 [[^177Lu]Lu-M3, metal not drawn] ({DOTA}-[dE]PYGW[NMeNle]-OH; C-terminus assumed)', 9.5);

Shift focus to the following entry.
Input: Given CCCC[C@@H](C(=O)N[C@@H](CC(=O)O)C(=O)O)N(C)C(=O)[C@H](Cc1c[nH]c2ccccc12)NC(=O)CNC(=O)[C@H](Cc1ccc(O)cc1)NC(=O)[C@@H]1CCCN1C(=O)[C@@H](CCC(=O)O)NC(=O)CN1CCN(CC(=O)O)CCN(CC(=O)O)CCN(CC(=O)O)CC1 [[^177Lu]Lu-M2, metal not drawn] ({DOTA}-[dE]PYGW[NMeNle]D-OH; C-terminus assumed) , state its recorded percentage of intact radiopeptide / radiometabolite.
Output: 40.5
